# STUDY_TARGET: CD28 (Homo sapiens, UniProt P10747)
# ASSAY_SUMMARY: Jurkat/IL2 reporter assay: blockade of CD28 costimulation (plate-bound anti-CD3/CD86-Fc)
# Format: cell-based
# Design: host or cells: Jurkat cells expressing an IL-2-luciferase reporter
# CONDITIONS: Table E5; protein diluted to 40 nM before mixing with cells; 5 hours
# Experimental: The day before the assay, the assay plate was prepared. […] The plate was incubated overnight at 4° C. to allow the antibody and CD86-Fc protein to adhere to the surface of the plate. The next day, the wells of the assay plate were washed twice with 150 μL PBS prior to the assay. Jurkat effector cells expressing IL-2-luciferase reporter were counted and resuspended in assay buffer to a concentration of 2×10^6 cells/mL. […]
// reported Average Relative Luminescence Units for each item listed
READOUT_TYPE: Average Relative Luminescence Units

MOLECULE	REPORTED_MEASUREMENT
Q27H/M43I/A71D/R73S: variant CD80 IgV-Fc, IgV SEQ ID NO:183 (protein) VIHVTKEVKEVATLSCGHNVSVEELAHTRIYWQKEKKMVLTMISGDMNIWPEYKNRTIFDITNNLSIVILDLSPSDEGTYECVVLKYEKDAFKREHLAEVTLSVKAD	1891 Relative Luminescence Units
H18Y/A71D/L72P/E88V: variant CD80 IgV-Fc, IgV SEQ ID NO:214 (protein) VIHVTKEVKEVATLSCGYNVSVEELAQTRIYWQKEKKMVLTMMSGDMNIWPEYKNRTIFDITNNLSIVILDPRPSDEGTYECVVLKYVKDAFKREHLAEVTLSVKAD	1354 Relative Luminescence Units
Y31H/E35D/T41S/V68L/K93R/R94W: variant CD80 IgV-Fc, IgV SEQ ID NO:223 (protein) VIHVTKEVKEVATLSCGHNVSVEELAQTRIHWQKDKKMVLSMMSGDMNIWPEYKNRTIFDITNNLSILILALRPSDEGTYECVVLKYEKDAFRWEHLAEVTLSVKAD	3678 Relative Luminescence Units
